Where do these numbers come from? They come from paper PMC9378659.

Test system: Staphylococcus aureus ATCC 6538
Below: a set of entries, each annotated with reported MIC.
READOUT_TYPE: MIC (µg/mL)

[[record]]
smiles_structure = "O=C(O)c1cn(C2CC2)c2cc(N3CCN(C(=S)c4cccc(Cl)c4)CC3)c(F)cc2c1=O"
readout_type = "MIC"
unit_label = "µg/mL"
assay_result = 0.048

[[record]]
smiles_structure = "O=C(O)c1cn(C2CC2)c2cc(N3CCN(C(=S)c4ccc([N+](=O)[O-])cc4)CC3)c(F)cc2c1=O"
readout_type = "MIC"
unit_label = "µg/mL"
assay_result = 0.781

[[record]]
smiles_structure = "O=C(O)c1cn(C2CC2)c2cc(N3CCN(C(=S)c4ccc(Br)cc4)CC3)c(F)cc2c1=O"
readout_type = "MIC"
unit_label = "µg/mL"
assay_result = 0.048

[[record]]
smiles_structure = "O=C(O)c1cn(C2CC2)c2cc(N3CCN(C(=S)c4cccc(F)c4)CC3)c(F)cc2c1=O"
readout_type = "MIC"
unit_label = "µg/mL"
assay_result = 0.048


* * *

Molecular target: jack bean urease (JBU; EC 3.5.1.5) (Canavalia ensiformis, UniProt P07374)
Construct: purchased Sigma-Aldrich
Sequence (P07374 whole entry, looked up): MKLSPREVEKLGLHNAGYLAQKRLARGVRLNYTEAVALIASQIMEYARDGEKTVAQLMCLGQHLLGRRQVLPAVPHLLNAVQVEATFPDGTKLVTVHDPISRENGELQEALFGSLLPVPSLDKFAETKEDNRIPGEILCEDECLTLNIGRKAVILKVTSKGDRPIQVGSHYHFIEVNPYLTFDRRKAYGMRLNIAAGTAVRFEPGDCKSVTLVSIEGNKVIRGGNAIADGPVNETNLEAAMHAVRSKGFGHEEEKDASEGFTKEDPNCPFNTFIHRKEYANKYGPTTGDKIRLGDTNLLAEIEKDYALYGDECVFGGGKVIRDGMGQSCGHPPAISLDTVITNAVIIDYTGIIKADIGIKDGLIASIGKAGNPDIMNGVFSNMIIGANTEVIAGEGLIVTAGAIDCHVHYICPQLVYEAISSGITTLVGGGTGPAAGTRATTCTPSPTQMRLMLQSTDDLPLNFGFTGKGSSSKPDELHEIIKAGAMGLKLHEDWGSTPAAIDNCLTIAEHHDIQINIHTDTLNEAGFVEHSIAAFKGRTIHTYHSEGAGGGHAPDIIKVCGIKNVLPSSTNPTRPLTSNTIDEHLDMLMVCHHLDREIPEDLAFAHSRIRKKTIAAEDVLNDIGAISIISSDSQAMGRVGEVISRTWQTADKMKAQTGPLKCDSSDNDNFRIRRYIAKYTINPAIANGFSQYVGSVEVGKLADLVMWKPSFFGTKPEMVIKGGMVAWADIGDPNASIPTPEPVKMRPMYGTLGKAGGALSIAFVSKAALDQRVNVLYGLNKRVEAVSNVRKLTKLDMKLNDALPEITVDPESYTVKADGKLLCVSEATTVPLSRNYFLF
Test: biochemical
Conditions: JB urease; mean ± SEM, at least three experiments; read-out: IC50 urease inhibitory activity
pIC50: −log10 of the molar value.
Below: a set of entries, each annotated with reported pIC50.
READOUT_TYPE: pIC50

[[record]]
molecule = "NC(=O)NO [Hydroxyurea, reference compound]"
readout_type = "pIC50"
assay_result = 4.00

[[record]]
molecule = "NC(N)=S"
readout_type = "pIC50"
assay_result = 4.64


* * *

Below: a set of entries, each annotated with reported IC50.
Target: jack bean urease (JBU; EC 3.5.1.5) (Canavalia ensiformis)
Construct: purchased Sigma-Aldrich
Test: biochemical
Conditions: IC50 urease inhibitory activity, JB urease; mean ± SEM, at least three experiments
Protocol: All chemicals and jack bean urease (JBU; EC 3.5.1.5) were purchased from Sigma-Aldrich. The urease inhibitory activity of N-thioacylated ciprofloxacin derivatives 3a–n was determined by Berthelot colorimetric method. The ammonia (NH3) produced by the urease enzyme along with indicator solutions including hypochlorite (OCl^−) and phenol make a blue-colored indophenol complex and the absorbance was measured at 625 nm by a Synergy H1 Hybrid multimode microplate reader (BioTek, Winooski, VT, USA). […]
READOUT_TYPE: IC50 (µM)

[[record]]
smiles_structure = "COc1cccc(C(=S)N2CCN(c3cc4c(cc3F)c(=O)c(C(=O)O)cn4C3CC3)CC2)c1"
test_target = "jack bean urease (JBU; EC 3.5.1.5) (Canavalia ensiformis)"
assay_result = 17

[[record]]
smiles_structure = "O=C(O)c1cn(C2CC2)c2cc(N3CCN(C(=S)c4cccc(Cl)c4)CC3)c(F)cc2c1=O"
test_target = "jack bean urease (JBU; EC 3.5.1.5) (Canavalia ensiformis)"
assay_result = 12.2

[[record]]
smiles_structure = "O=C(O)c1cn(C2CC2)c2cc(N3CCN(C(=S)c4ccc(Cl)cc4)CC3)c(F)cc2c1=O"
test_target = "jack bean urease (JBU; EC 3.5.1.5) (Canavalia ensiformis)"
assay_result = 6.55

[[record]]
smiles_structure = "O=C(O)c1cn(C2CC2)c2cc(N3CCN(C(=S)c4cccc(O)c4)CC3)c(F)cc2c1=O"
test_target = "jack bean urease (JBU; EC 3.5.1.5) (Canavalia ensiformis)"
assay_result = 19.6

[[record]]
smiles_structure = "O=C(O)c1cn(C2CC2)c2cc(N3CCN(C(=S)c4ccccc4F)CC3)c(F)cc2c1=O"
test_target = "jack bean urease (JBU; EC 3.5.1.5) (Canavalia ensiformis)"
assay_result = 15

[[record]]
smiles_structure = "O=C(O)c1cn(C2CC2)c2cc(N3CCN(C(=S)c4ccc(Br)cc4)CC3)c(F)cc2c1=O"
test_target = "jack bean urease (JBU; EC 3.5.1.5) (Canavalia ensiformis)"
assay_result = 8.21

[[record]]
smiles_structure = "COc1ccc(C(=S)N2CCN(c3cc4c(cc3F)c(=O)c(C(=O)O)cn4C3CC3)CC2)cc1"
test_target = "jack bean urease (JBU; EC 3.5.1.5) (Canavalia ensiformis)"
assay_result = 21.4

[[record]]
smiles_structure = "O=C(O)c1cn(C2CC2)c2cc(N3CCN(C(=S)c4cccc(F)c4)CC3)c(F)cc2c1=O"
test_target = "jack bean urease (JBU; EC 3.5.1.5) (Canavalia ensiformis)"
assay_result = 4.08


* * *

Target: jack bean urease (JBU; EC 3.5.1.5) (Canavalia ensiformis, UniProt P07374)
Construct: purchased Sigma-Aldrich
Experiment: biochemical
Conditions: IC50 urease inhibitory activity, JB urease; mean ± SEM, at least three experiments
Procedure: All chemicals and jack bean urease (JBU; EC 3.5.1.5) were purchased from Sigma-Aldrich. The urease inhibitory activity of N-thioacylated ciprofloxacin derivatives 3a–n was determined by Berthelot colorimetric method. The ammonia (NH3) produced by the urease enzyme along with indicator solutions including hypochlorite (OCl^−) and phenol make a blue-colored indophenol complex and the absorbance was measured at 625 nm by a Synergy H1 Hybrid multimode microplate reader (BioTek, Winooski, VT, USA). […]
pIC50: −log10 of the molar value.
Use Yes when the recorded pIC50 is no lower than 5; use No when it is lower.

[[record]]
smiles_structure = "O=C(O)c1cn(C2CC2)c2cc(N3CCN(C(=S)c4ccc([N+](=O)[O-])cc4)CC3)c(F)cc2c1=O"
discrete_label = "Yes"

[[record]]
smiles_structure = "O=C(O)c1cn(C2CC2)c2cc(N3CCN(C(=S)c4ccc(F)cc4)CC3)c(F)cc2c1=O"
discrete_label = "Yes"

[[record]]
smiles_structure = "O=C(O)c1cn(C2CC2)c2cc(N3CCN(C(=S)c4cccc(Oc5ccccc5)c4)CC3)c(F)cc2c1=O"
discrete_label = "No"

[[record]]
smiles_structure = "O=C(O)c1cn(C2CC2)c2cc(N3CCN(C(=S)c4cccc([N+](=O)[O-])c4)CC3)c(F)cc2c1=O"
discrete_label = "Yes"

[[record]]
smiles_structure = "Cc1ccc(C(=S)N2CCN(c3cc4c(cc3F)c(=O)c(C(=O)O)cn4C3CC3)CC2)cc1"
discrete_label = "No"


* * *

Consider the following MIC values measured on Staphylococcus aureus ATCC 6538.
READOUT_TYPE: MIC

[[record]]
smiles_structure = "Cc1ccc(C(=S)N2CCN(c3cc4c(cc3F)c(=O)c(C(=O)O)cn4C3CC3)CC2)cc1"
test_target = "Staphylococcus aureus ATCC 6538"
readout_type = "MIC"
assay_result = "0.048 µg/mL"

[[record]]
smiles_structure = "COc1cccc(C(=S)N2CCN(c3cc4c(cc3F)c(=O)c(C(=O)O)cn4C3CC3)CC2)c1"
test_target = "Staphylococcus aureus ATCC 6538"
readout_type = "MIC"
assay_result = "0.048 µg/mL"

[[record]]
smiles_structure = "O=C(O)c1cn(C2CC2)c2cc(N3CCN(C(=S)c4cccc(O)c4)CC3)c(F)cc2c1=O"
test_target = "Staphylococcus aureus ATCC 6538"
readout_type = "MIC"
assay_result = "0.097 µg/mL"

[[record]]
smiles_structure = "O=C(O)c1cn(C2CC2)c2cc(N3CCN(C(=S)c4ccccc4)CC3)c(F)cc2c1=O"
test_target = "Staphylococcus aureus ATCC 6538"
readout_type = "MIC"
assay_result = "0.048 µg/mL"

[[record]]
smiles_structure = "O=C(O)c1cn(C2CC2)c2cc(N3CCN(C(=S)c4ccc(F)cc4)CC3)c(F)cc2c1=O"
test_target = "Staphylococcus aureus ATCC 6538"
readout_type = "MIC"
assay_result = "0.097 µg/mL"

[[record]]
smiles_structure = "O=C(O)c1cn(C2CC2)c2cc(N3CCN(C(=S)c4cccc([N+](=O)[O-])c4)CC3)c(F)cc2c1=O"
test_target = "Staphylococcus aureus ATCC 6538"
readout_type = "MIC"
assay_result = "0.024 µg/mL"

[[record]]
smiles_structure = "O=C(O)c1cn(C2CC2)c2cc(N3CCN(C(=S)c4ccccc4F)CC3)c(F)cc2c1=O"
test_target = "Staphylococcus aureus ATCC 6538"
readout_type = "MIC"
assay_result = "0.024 µg/mL"

[[record]]
smiles_structure = "O=C(O)c1cn(C2CC2)c2cc(N3CCN(C(=S)c4cccc(Oc5ccccc5)c4)CC3)c(F)cc2c1=O"
test_target = "Staphylococcus aureus ATCC 6538"
readout_type = "MIC"
assay_result = "0.39 µg/mL"

[[record]]
smiles_structure = "O=C(O)c1cn(C2CC2)c2cc(N3CCNCC3)c(F)cc2c1=O"
test_target = "Staphylococcus aureus ATCC 6538"
readout_type = "MIC"
assay_result = "0.024 µg/mL"

[[record]]
smiles_structure = "COc1ccc(C(=S)N2CCN(c3cc4c(cc3F)c(=O)c(C(=O)O)cn4C3CC3)CC2)cc1"
test_target = "Staphylococcus aureus ATCC 6538"
readout_type = "MIC"
assay_result = "0.024 µg/mL"

[[record]]
smiles_structure = "O=C(O)c1cn(C2CC2)c2cc(N3CCN(C(=S)c4ccc(Cl)cc4)CC3)c(F)cc2c1=O"
test_target = "Staphylococcus aureus ATCC 6538"
readout_type = "MIC"
assay_result = "0.048 µg/mL"

